biological target: 5-HT2B receptor (Homo sapiens); construct: host or cells: CHO-K1; experiment: 5-HT2B receptor binding, 3H-LSD ligand displacement assay; conditions: 1 uM compound
Sequence (P41595 whole entry): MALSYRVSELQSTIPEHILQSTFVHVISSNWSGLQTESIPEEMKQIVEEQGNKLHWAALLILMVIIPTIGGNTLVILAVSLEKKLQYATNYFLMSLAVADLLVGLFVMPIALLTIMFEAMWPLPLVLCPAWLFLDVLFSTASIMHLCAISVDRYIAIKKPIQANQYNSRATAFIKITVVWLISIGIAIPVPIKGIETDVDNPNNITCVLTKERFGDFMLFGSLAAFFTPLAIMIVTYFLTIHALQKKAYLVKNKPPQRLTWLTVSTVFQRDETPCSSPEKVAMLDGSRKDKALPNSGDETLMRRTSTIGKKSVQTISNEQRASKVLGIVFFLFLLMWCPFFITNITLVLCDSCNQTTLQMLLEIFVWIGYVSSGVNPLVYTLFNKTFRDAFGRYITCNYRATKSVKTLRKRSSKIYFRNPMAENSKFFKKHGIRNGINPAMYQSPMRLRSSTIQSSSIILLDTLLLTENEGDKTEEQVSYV
property label: inhibition at 1 µM (%)
# output: bare number, implied unit %

The measured inhibition at 1 µM associated with CC(C)c1ccccc1C1=NN(C(=N)N)CC1 reads 95

# molecule N=C(N)N1CCC(c2ccc3ccccc3c2)=N1 [Example 12, reference compound] ; its inhibition at 1 µM = 76

The molecule Cc1ccccc1C1=NN(C(=N)N)CC1 showed inhibition at 1 µM equal to 89

Field inhibition at 1 µM (entry COc1ccc(C2=NN(C(=N)N)CC2)cc1 [Example 15, reference compound] ) reads 13

inhibition at 1 µM in this record for CC1CN(C(=N)N)N=C1c1ccc(F)cc1O (stereo not drawn) : 96

GET /value?item= C[C@H]1CN(C(=N)N)N=C1c1ccccc1O (single isomer, unassigned) &field=inhibition at 1 µM returns 72

The molecule identified as Cc1c(C2=NN(C(=N)N)C(C)C2)sc2ccccc12 (stereo not drawn) registered its inhibition at 1 µM at 97

The reported value for N=C(NCc1ccccc1)N1CCC(c2ccccc2Cl)=N1 in terms of inhibition at 1 µM is 96

// sample CC1CN(C(=N)N)N=C1c1ccc(C(F)(F)F)cc1O (stereo not drawn) , its inhibition at 1 µM was 97

GET /value?item= N=C(N)N1CCC(c2ccccc2F)=N1 &field=inhibition at 1 µM returns 53

Please fill in: inhibition at 1 µM reported for CC1CN(C(=N)N)N=C1c1cccc(Cl)c1O (stereo not drawn) = 101

Consider CNC(=N)N1CC(C)C(c2ccccc2O)=N1 (stereo not drawn) . Its measured inhibition at 1 µM is 99

For CC1CN(C(=N)N)N=C1c1cccc(F)c1O (stereo not drawn) the molecule record lists inhibition at 1 µM as 95

inhibition at 1 µM reported for this molecule COc1cc(C(F)(F)F)ccc1C1=NN(C(=N)N)CC1C (stereo not drawn) : 86

Record summary for COc1cccc(Cl)c1C1=NN(C(=N)N)CC1 : reported inhibition at 1 µM = 37

Measured inhibition at 1 µM of CC1CN(C(=N)N)N=C1c1ccc(O)cc1O (stereo not drawn) : 72

Form: molecule = CNC(=N)N1CCC(c2ccccc2O)=N1 ; inhibition at 1 µM = 89

// inhibition at 1 µM value for CC1CN(C(=N)N)N=C1c1cc(F)ccc1O (stereo not drawn) : 89

# inhibition at 1 µM (molecule: N=C(N)N1CCC(c2ccccc2N)=N1 ) is 69

Measured inhibition at 1 µM, N=C(N)N1CCC(c2cc(F)ccc2F)=N1 : 47

// recorded inhibition at 1 µM for COc1ccc(F)cc1C1=NN(C(=N)N)CC1C (stereo not drawn) : 86

N=C(N)N1CCC(c2ccccc2Br)=N1 has a reported inhibition at 1 µM of 89

molecule N=C(N)N1CCC(c2ccccc2Cl)=N1 , inhibition at 1 µM observed: 95

N=C(N)N1CCC(c2ccccc2C(F)(F)F)=N1 has a reported inhibition at 1 µM of 82

Looking up CC1CC(c2c(F)cccc2F)=NN1C(=N)N (stereo not drawn) , I see its inhibition at 1 µM listed as 55

What the record says about COc1cc(F)ccc1C1=NN(C(=N)N)CC1C (stereo not drawn) : inhibition at 1 µM is 78

Data point: CC1CC(c2ccccc2Cl)=NN1C(=N)N (stereo not drawn) ; inhibition at 1 µM = 91

Record CCC1CC(c2ccccc2Cl)=NN1C(=N)N (stereo not drawn) . Reported inhibition at 1 µM: 76

Reported inhibition at 1 µM of CC1CN(C(=N)NO)N=C1c1ccccc1O (stereo not drawn) : 94

The reported value for CC1CN(C(=N)N)N=C1c1cc(Cl)ccc1O (stereo not drawn) in terms of inhibition at 1 µM is 95

Sample COc1c(Cl)cccc1C1=NN(C(=N)N)CC1C (stereo not drawn) ; inhibition at 1 µM observed: 100

inhibition at 1 µM for CCOC(=O)NC(=N)N1CC(C)C(c2cccc(Cl)c2O)=N1 (stereo not drawn) is 99

Reported inhibition at 1 µM for N=C(NCc1ccccc1)N1CCC(c2ccccc2O)=N1 was 102

Just so you know, measured inhibition at 1 µM for N=C(N)N1CCC(c2c(O)cccc2Cl)=N1 came out at 52

Lab note: CC1CN(C(=N)N)N=C1c1ccccc1O.Cl (stereo not drawn) gave inhibition at 1 µM of 100

Form: molecule = CNC(=N)N1CCC(c2ccccc2Cl)=N1 ; inhibition at 1 µM = 79
